Assay: decreased DLD-1 cellular survival, CellTiter-Glo luminescent readout, NPC compound collection, primary HTS (AID 1117346)
Settings: DLD-1 viability, CellTiter-Glo luminescence; at 20 µM (top of the series)
measurementName: viability decrease (inhibition) (%)

>>> numericvalue("O=C(C1CCCCC1)N1CC(=O)N2CCc3ccccc3C2C1 (stereo unspecified)")
-16.7
>>> numericvalue("CCCCCCCCCCCC(=O)[O][Sn]([CH2]CCC)([CH2]CCC)[O]C(=O)CCCCCCCCCCC")
101
>>> numericvalue("O=[N+]([O-])c1ccc(Oc2ccc(N=C=S)cc2)cc1")
100
>>> numericvalue("CCc1nnc(NS(=O)(=O)c2ccc(N)cc2)s1")
-18.9
>>> numericvalue("CN(C)CCN(Cc1ccsc1)c1ccccn1")
-3.9
>>> numericvalue("O=C(Nc1ccc(Cl)cc1)Nc1ccc(Cl)c(Cl)c1")
94.1
>>> numericvalue("NC12CC3CC(CC(C3)C1)C2")
14.6
>>> numericvalue("CCCCCCCCCC(=O)O")
4.9
>>> numericvalue("Nc1ncnc2c1ncn2Cc1c(F)cccc1Cl")
-2
>>> numericvalue("CC(C)(C)C(=O)NCCCC(=O)O")
-16.7
>>> numericvalue("N#C/C(=C1/SC[C@@H](c2ccc(Cl)cc2Cl)S1)n1ccnc1")
84.3
>>> numericvalue("COC(=O)c1ccc(O)cc1")
-6.75
>>> numericvalue("C#CC(C)(CC)OC(=O)c1ccccc1C(=O)O (stereo unspecified)")
-12.1
>>> numericvalue("Cc1cc(OCCOCC[N+](C)(C)Cc2ccccc2)ccc1C(C)(C)CC(C)(C)C")
103
>>> numericvalue("NC[C@@H]1O[C@H](O[C@H]2[C@H](O)[C@H](O[C@H]3[C@@H](O)[C@H](N)C[C@H](N)[C@H]3O[C@H]3O[C@H](CN)[C@H](O)[C@H](O)[C@H]3N)O[C@@H]2CO)[C@@H](N)[C@@H](O)[C@@H]1O")
5
>>> numericvalue("C[C@@H]1O[C@@H](OC[C@H]2O[C@@H](Oc3c(-c4ccc(O)c(O)c4)oc4cc(O)cc(O)c4c3=O)[C@H](O)[C@@H](O)[C@@H]2O)[C@H](O)[C@H](O)[C@H]1O")
44.7
